Source listed as patent US6376510B1.

# RI (recovery index) per record follows
Test system: rabbits
Assay: In vivo neuromuscular block and cardiovascular side effects, rabbit (Example 8, Table 7)
Conditions: spontaneous recovery, 25-75% neuromuscular response

molecule | RI (recovery index)
CC(=O)Oc1ccc(C[N+]2(C)C3CCC2CC(OC(=O)C2C4C=CC(C4)C2C(=O)OC2CC4CCC(C2)[N+]4(C)Cc2ccc(OC(C)=O)c(OC(C)=O)c2)C3)cc1OC(C)=O.[Br-].[Br-] (stereo not drawn) [bis[N-(3,4-diacetoxybenzyl)tropanium-3α-yl]trans-3,6-endomet] | 0.7 min
CC(=O)Oc1ccc(C[N+]2(C)C3CCCC2CC(OC(=O)CCCCCC(=O)OC2CC4CCCC(C2)[N+]4(C)Cc2ccc(OC(C)=O)c(OC(C)=O)c2)C3)cc1OC(C)=O.[Br-].[Br-] (stereo not shown) | 0.6 min
COc1cc(C[N+]2(C)[C@@H]3CC[C@H]2C[C@@H](OC(=O)CCCCCCCCCC(=O)O[C@H]2C[C@H]4CC[C@@H](C2)[N+]4(C)Cc2cc(OC)c(OC)c(OC)c2)C3)cc(OC)c1OC.[Br-].[Br-] (stereo partly shown) | 2.5 min
CC(=O)Oc1ccc(C[N+]2(C)[C@@H]3CC[C@H]2C[C@@H](OC(=O)C2CCCC(C(=O)O[C@H]4C[C@H]5CC[C@@H](C4)[N+]5(C)Cc4ccc(OC(C)=O)c(OC(C)=O)c4)C2)C3)cc1OC(C)=O.[Br-].[Br-] (stereo partly shown) | 0.7 min

====

System: anesthetized juvenile pigs
Assay: animal or person
Format: in vivo
Conditions: pig; time to 80-85% neuromuscular block
# Onset per record follows

compound | unit_label | Onset
CC(=O)Oc1ccc(C[N+]2(C)C3CCCC2CC(OC(=O)CCCCCCC(=O)OC2CC4CCCC(C2)[N+]4(C)Cc2ccc(OC(C)=O)c(OC(C)=O)c2)C3)cc1OC(C)=O.[Br-].[Br-] (centres unmarked) | min | 0.6
C[N+]1(CC=Cc2ccccc2)[C@@H]2CC[C@H]1C[C@@H](OC(=O)CCCCCCCCCCC(=O)O[C@H]1C[C@H]3CC[C@@H](C1)[N+]3(C)CC=Cc1ccccc1)C2.[Br-].[Br-] (some centres unmarked) [reference compound] | min | 1.60
CC(=O)Oc1ccc(C[N+]2(C)[C@@H]3CC[C@H]2C[C@@H](OC(=O)CCCC(=O)O[C@H]2C[C@H]4CC[C@@H](C2)[N+]4(C)Cc2ccc(OC(C)=O)c(OC(C)=O)c2)C3)cc1OC(C)=O.[Br-].[Br-] (some centres unmarked) | min | 0.95
CCC(=O)Oc1c(OC)cc(C[N+]2(C)[C@@H]3CC[C@H]2C[C@@H](OC(=O)C2CCCC(C(=O)O[C@H]4C[C@H]5CC[C@@H](C4)[N+]5(C)Cc4cc(OC)c(OC(=O)CC)c(OC)c4)C2)C3)cc1OC.[Br-].[Br-] (some centres unmarked) | min | 0.7
CCC(=O)Oc1ccc(C[N+]2(C)[C@@H]3CC[C@H]2C[C@@H](OC(=O)C2CCC2C(=O)O[C@H]2C[C@H]4CC[C@@H](C2)[N+]4(C)Cc2ccc(OC(=O)CC)c(OC(=O)CC)c2)C3)cc1OC(=O)CC.[Br-].[Br-] (some centres unmarked) | min | 0.7

====

System: anesthetized rats (evoked responses of anterior tibial muscle)
Assay: In vivo neuromuscular block and cardiovascular side effects, anesthetized rat (Example 8, Table 3)
Details: rat; at 80-85% neuromuscular blocking dose

compound | unit_label | ΔBP (change in arterial blood pressure)
C[N+]1(Cc2ccccc2)[C@@H]2CC[C@H]1C[C@@H](OC(=O)CCCC(=O)O[C@H]1C[C@H]3CC[C@@H](C1)[N+]3(C)Cc1ccccc1)C2.[Br-].[Br-] (stereo partly drawn) [reference compound] | % | −10
COc1cc(C[N+]2(C)[C@@H]3CC[C@H]2C[C@@H](OC(=O)C2CCC2C(=O)O[C@H]2C[C@H]4CC[C@@H](C2)[N+]4(C)Cc2cc(OC)c(OC(C)=O)c(OC)c2)C3)cc(OC)c1OC(C)=O.[Br-].[Br-] (stereo partly drawn) | % | 0
COc1cc(C[N+]2(C)[C@@H]3CC[C@H]2C[C@@H](OC(=O)CCCCCCCCCC(=O)O[C@H]2C[C@H]4CC[C@@H](C2)[N+]4(C)Cc2cc(OC)c(OC)c(OC)c2)C3)cc(OC)c1OC.[Br-].[Br-] (stereo partly drawn) | % | 0
COc1ccc(OC)c(C[N+]2(C)C3CCC2CC(OC(=O)C2C4C=CC(C4)C2C(=O)OC2CC4CCC(C2)[N+]4(C)Cc2cc(OC)ccc2OC)C3)c1.[Br-].[Br-] (stereo not drawn) | % | 0
C[N+]1(C)[C@@H]2CC[C@H]1C[C@@H](OC(=O)CCCC(=O)O[C@H]1C[C@H]3CC[C@@H](C1)[N+]3(C)C)C2.[I-].[I-] [reference compound] | % | 0
COc1cc(C[N+]2(C)[C@@H]3CC[C@H]2C[C@@H](OC(=O)CCCCCCCCCC(=O)O[C@H]2C[C@H]4CC[C@@H](C2)[N+]4(C)Cc2cc(OC)c(OC(C)=O)c(OC)c2)C3)cc(OC)c1OC(C)=O.[Br-].[Br-] (stereo partly drawn) | % | 0

====

Tested on: anesthetized juvenile pigs
Assay: animal or person
Assay type: in vivo
Settings: pig; time to 80-85% neuromuscular block
# Onset per record follows

compound | Onset, min
CCC(=O)Oc1ccc(C[N+]2(C)C3CCCC2CC(OC(=O)C2CCC2C(=O)OC2CC4CCCC(C2)[N+]4(C)Cc2ccc(OC(=O)CC)c(OC(=O)CC)c2)C3)cc1OC(=O)CC.[Br-].[Br-] (stereo not drawn) | 0.5
CCC(=O)Oc1ccc(C[N+]2(C)[C@@H]3CC[C@H]2C[C@@H](OC(=O)CCCC(=O)O[C@H]2C[C@H]4CC[C@@H](C2)[N+]4(C)Cc2ccc(OC(=O)CC)c(OC(=O)CC)c2)C3)cc1OC(=O)CC.[Br-].[Br-] (stereo partly drawn) | 1.1
CC(=O)Oc1ccc(C[N+]2(C)C3CCCC2CC(OC(=O)CCCCC(=O)OC2CC4CCCC(C2)[N+]4(C)Cc2ccc(OC(C)=O)c(OC(C)=O)c2)C3)cc1OC(C)=O.[Br-].[Br-] (stereo not drawn) | 0.7

====

Test system: anesthetized cats (evoked responses of anterior tibial muscle)
Assay: animal or person
Conditions: in vivo
Method: a) Adult, male albino rats were anesthetized with pentobarbital injected intraperitoneally. The trachea was cannulated for artificial respiration via a small animal respirator. […] The intensity, onset, and duration of neuromuscular block and its type were determined with each agent. Through administering several doses, the doses corresponding to 50%, 80% and 90% neuromuscular block were determined. […]
# VB (vagal block) per record follows

molecule | target_desc | VB (vagal block) [%]
COc1cc(C[N+]2(C)C3CCC2CC(OC(=O)C2C4C=CC(C4)C2C(=O)OC2CC4CCC(C2)[N+]4(C)Cc2ccc(OC(C)=O)c(OC)c2)C3)ccc1OC(C)=O.[Br-].[Br-] (centres unmarked) | anesthetized cats (evoked responses of anterior tibial muscle) | 20
CC(=O)Oc1ccc(C[N+]2(C)C3CCCC2CC(OC(=O)CCCCC(=O)OC2CC4CCCC(C2)[N+]4(C)Cc2ccc(OC(C)=O)c(OC(C)=O)c2)C3)cc1OC(C)=O.[Br-].[Br-] (centres unmarked) | anesthetized cats (evoked responses of anterior tibial muscle) | 70
CC(=O)Oc1ccc(C[N+]2(C)C3CCCC2CC(OC(=O)CCCC(=O)OC2CC4CCCC(C2)[N+]4(C)Cc2ccc(OC(C)=O)c(OC(C)=O)c2)C3)cc1OC(C)=O.[Br-].[Br-] (centres unmarked) | anesthetized cats (evoked responses of anterior tibial muscle) | 60
CC(=O)Oc1ccc(C[N+]2(C)C3CCCC2CC(OC(=O)CCCCCCC(=O)OC2CC4CCCC(C2)[N+]4(C)Cc2ccc(OC(C)=O)c(OC(C)=O)c2)C3)cc1OC(C)=O.[Br-].[Br-] (centres unmarked) | anesthetized cats (evoked responses of anterior tibial muscle) | 80
CC(=O)Oc1ccc(C[N+]2(C)C3CCC2CC(OC(=O)C2C4C=CC(C4)C2C(=O)OC2CC4CCC(C2)[N+]4(C)Cc2ccc(OC(C)=O)c(OC(C)=O)c2)C3)cc1OC(C)=O.[Br-].[Br-] (stereo not drawn) [bis[N-(3,4-diacetoxybenzyl)tropanium-3α-yl]trans-3,6-endomet] | anesthetized cats (evoked responses of anterior tibial muscle) | 30

====

Test system: anesthetized rats (evoked responses of anterior tibial muscle)
Experiment: In vivo neuromuscular block and cardiovascular side effects, anesthetized rat (Example 8, Table 3)
Conditions: rat; at 80-85% neuromuscular blocking dose
parameter: ΔH (change in heart rate) (%)

compound | parameter | unit_label | value_observed
CC(=O)Oc1ccc(C[N+]2(C)C3CCC2CC(OC(=O)C2C4C=CC(C4)C2C(=O)OC2CC4CCC(C2)[N+]4(C)Cc2ccc(OC(C)=O)c(OC(C)=O)c2)C3)cc1OC(C)=O.[Br-].[Br-] (stereo not drawn) [bis[N-(3,4-diacetoxybenzyl)tropanium-3α-yl]trans-3,6-endomet] | ΔH (change in heart rate) | % | 0
CC(=O)Oc1ccc(C[N+]2(C)[C@@H]3CC[C@H]2C[C@@H](OC(=O)C2CCC2C(=O)O[C@H]2C[C@H]4CC[C@@H](C2)[N+]4(C)Cc2ccc(OC(C)=O)c(OC(C)=O)c2)C3)cc1OC(C)=O.[Br-].[Br-] (stereo partly drawn) | ΔH (change in heart rate) | % | 0
COc1cc(C[N+]2(C)[C@@H]3CC[C@H]2C[C@@H](OC(=O)C2CCCC(C(=O)O[C@H]4C[C@H]5CC[C@@H](C4)[N+]5(C)Cc4ccc(OC(C)=O)c(OC)c4)C2)C3)ccc1OC(C)=O.[Br-].[Br-] (stereo partly drawn) | ΔH (change in heart rate) | % | 0
